Assay: Human coffee intervention study: plasma concentrations after roasted coffee brew by UPLC-MS/MS
Format: in vivo
Details: human, plasma, oral, 200 mL, participant eogo, 10 h after coffee; b = below LLOQ; read-out: plasma concentration, individual
property.name: concentration at 10 h (nM)

(1) C=C1C2CCC3C4(C)CC(O)CC(C(=O)OC5OC(C(=O)O)C(O)C(O)C5O)C4CCC3(C2)C1O [M1, atractyligenin-19-O-β-D-glucuronide]
(2) CC1C(=O)C23CCC4C(C(=O)O)CC(OC5OC(C(=O)O)C(O)C(O)C5O)CC4(C)C2CCC1C3 (stereo not shown)
Would you let me know which has the greater concentration at 10 h value, 1 or 2 ? Mark your selection by writing its label.
2

====

Test: Human coffee intervention study: plasma concentrations after roasted coffee brew by UPLC-MS/MS
Assay type: in vivo
Settings: human, plasma, oral, 200 mL, participant wbqj, 10 h after coffee; b = below LLOQ; read-out: plasma concentration, individual
Procedure: The study included ten volunteers (5 females, 5 males) (age: 28.3 ± 2.3 years; BMI: 21.89 ± 2.22 kg/m^2). […] The study participants underwent a dietary protocol that excluded all forms of coffee consumption. […] The meal was composed of pasta, margarine, and salt, and the amount of energy was calculated based on the participant’s basal energy demand. […]
property.name: concentration at 10 h (nM)

C=C1[C@@H]2CC[C@@H]3[C@@](CCC4[C@H](C(=O)O)C[C@@H](O)C[C@]43C)(C2)[C@@H]1O (stereo partly shown): 4.7

(I) C=C1C2CCC3C4(C)CC(O)CC(C(=O)OC5OC(C(=O)O)C(O)C(O)C5O)C4CCC3(C2)C1O [M1, atractyligenin-19-O-β-D-glucuronide]
(II) CC1C(=O)C23CCC4C(C(=O)O)CC(OC5OC(C(=O)O)C(O)C(O)C5O)CC4(C)C2CCC1C3 (stereo not shown)
(III) CC1C(=O)C23CCC4C(C(=O)OC5OC(C(=O)O)C(O)C(O)C5O)CC(O)CC4(C)C2CCC1C3 (stereo not shown)
Rank order required: concentration at 10 h, descending. Give your ranking as a list of the labels in the requested order.
II, I, III
(II: 64.1 nM, I: 8.5 nM, III: 2.8 nM)

====

Test: Human coffee intervention study: plasma concentrations after roasted coffee brew by UPLC-MS/MS
Format: in vivo
Settings: human, plasma, oral, 200 mL, participant ayia, 4 h after coffee; b = below LLOQ; read-out: plasma concentration, individual
property.name: concentration at 4 h (nM)

(I) CC1C(=O)C23CCC4C(C(=O)OC5OC(C(=O)O)C(O)C(O)C5O)CC(O)CC4(C)C2CCC1C3 (centres unmarked) [M2]
(II) C=C1C2CCC3C4(C)CC(O)CC(C(=O)OC5OC(C(=O)O)C(O)C(O)C5O)C4CCC3(C2)C1O [M1, atractyligenin-19-O-β-D-glucuronide]
Smaller concentration at 4 h value? Options are I and II Record your answer as the label of the chosen record.
I

====

Assay: Human coffee intervention study: plasma concentrations after roasted coffee brew by UPLC-MS/MS
Format: in vivo
Conditions: human, plasma, oral, 200 mL, participant xrwz, 1 h after coffee; read-out: plasma concentration, individual
property.name: concentration at 1 h (nM)
Field format: number, assumed nM, no unit text.

C=C1C2CCC3C4(C)CC(O)CC(C(=O)OC5OC(C(=O)O)C(O)C(O)C5O)C4CCC3(C2)C1O [M1, atractyligenin-19-O-β-D-glucuronide]: 20.2

From here, focus on the item given below.
Request the reported concentration at 1 h associated with C=C1[C@@H]2CC[C@@H]3[C@@](CCC4[C@H](C(=O)O)C[C@@H](O)C[C@]43C)(C2)[C@@H]1O (some centres unmarked) [compound 1, atractyligenin]
26

====

Assay: Human coffee intervention study: plasma concentrations after roasted coffee brew by UPLC-MS/MS
Type: in vivo
Conditions: both sexes, oral; human plasma after coffee brew (200 mL), n = 10, mean ± SD; read-out: estimated cmax in plasma
property.name: Cmax (nM)

Use these answered entries as a reference point.
CC1C(=O)C23CCC4C(C(=O)O)CC(OC5OC(C(=O)O)C(O)C(O)C5O)CC4(C)C2CCC1C3 (stereo not shown): 55
C=C1[C@@H]2CC[C@@H]3[C@@](CCC4[C@H](C(=O)O)C[C@@H](O)C[C@]43C)(C2)[C@@H]1O (stereo partly shown): 41.9

(1) CC1C(=O)C23CCC4C(C(=O)OC5OC(C(=O)O)C(O)C(O)C5O)CC(O)CC4(C)C2CCC1C3 (stereo not shown)
(2) C=C1C2CCC3C4(C)CC(O)CC(C(=O)OC5OC(C(=O)O)C(O)C(O)C5O)C4CCC3(C2)C1O [M1, atractyligenin-19-O-β-D-glucuronide]
I'm curious whether 1 or 2 has the smaller Cmax number. Which is it? API: response body contains the label of the selected item.
1

====

Experiment: Human coffee intervention study: plasma concentrations after roasted coffee brew by UPLC-MS/MS
Type: in vivo
Conditions: human, plasma, oral, 200 mL, participant cbdu, 10 h after coffee; read-out: plasma concentration, individual
property.name: concentration at 10 h (nM)

C=C1[C@@H]2CC[C@@H]3[C@@](CCC4[C@H](C(=O)O)C[C@@H](O)C[C@]43C)(C2)[C@@H]1O (stereo partly shown) [compound 1, atractyligenin]: 19

(1) CC1C(=O)C23CCC4C(C(=O)O)CC(OC5OC(C(=O)O)C(O)C(O)C5O)CC4(C)C2CCC1C3 (stereo not shown) [M3]
(2) CC1C(=O)C23CCC4C(C(=O)OC5OC(C(=O)O)C(O)C(O)C5O)CC(O)CC4(C)C2CCC1C3 (stereo not shown) [M2]
(3) C=C1C2CCC3C4(C)CC(O)CC(C(=O)OC5OC(C(=O)O)C(O)C(O)C5O)C4CCC3(C2)C1O [M1, atractyligenin-19-O-β-D-glucuronide]
Hey, quick one: sort these by concentration at 10 h, largest value first please. // rank by listing labels in the order requested
3, 1, 2

Just for reference, paper PMC10722499 is where these values come from.
